# System: SW480
# assayProcedure: cell viability (CellTiter-Glo) relative to plate median (fraction of plate median); higher = more viable cells
# testConditions: 10 µM; treatment time 24 h; reporter: 7TFP
Structures can show the parent of a compound that is named as a salt.
assayEndpoint: cell viability
The response must contain the number and no unit.

>  <compound>
Cc1c(NC(=O)OC[C@@H]2COCCN2)cn2ncnc(Nc3ccc4c(cnn4Cc4cccc(F)c4)c3)c12

>  <assayResult>
1.01

$$$$
>  <compound>
Cc1ccc(NC(=O)c2ccc(CN3CCN(C)CC3)cc2)cc1Nc1nccc(-c2cccnc2)n1 [Imatinib Mesylate]

>  <assayResult>
0.984

$$$$
>  <compound>
COc1ccc2c(OCc3nnc4ccc(-c5ccccc5)nn34)ccnc2c1

>  <assayResult>
0.909

$$$$
>  <compound>
COc1ccc2c(Oc3ccc(NC(=O)c4c(C)n(CC(C)(C)O)n(-c5ccccc5)c4=O)nc3)ccnc2c1

>  <assayResult>
0.921

$$$$
>  <compound>
N=C(N)NC(=N)NCCc1ccccc1 [Phenformin hydrochloride]

>  <assayResult>
0.923

$$$$

Incoming: Provide value of cell viability for this record tested with SW480: CN(C)c1ccc(-c2nc3ncc(Cl)c(N4CCN(CC(=O)Nc5nccs5)CC4)c3[nH]2)cc1
Outgoing: 0.96

Incoming: Reported cell viability for SW480, given C=CC(=O)Nc1ccc2ncnc(Nc3ccc(OCc4cccc(F)c4)c(Cl)c3)c2c1 ?
Outgoing: 1

Incoming: For the record COc1cc2c(Nc3ccc(NC(=O)c4ccccc4)cc3)ncnc2cc1OCCCN1CCOCC1 , what value of cell viability is listed for SW480?
Outgoing: 1.11

Incoming: Reported cell viability for SW480, given COc1ccc2c3n(c(=NC(=O)c4cccnc4)nc2c1OC)CCN3 ?
Outgoing: 1.04
